protocol text: activity coefficient (dimensionless); of the first substance listed, at infinite dilution; xn = mol fraction of the nth substance listed
assay setup: 328.15 K; 101 kPa; Liquid; Chromatography; x1 = 0
reported metric: activity coefficient
Lab note: jot the number down without any unit.

# annotated cases, reported activity coefficient shown
[[record]]
molecule = "C#CCCC [1-pentyne] + CCCCCCOCn1cc[n+](COCCCCCC)c1.O=S(=O)([N-]S(=O)(=O)C(F)(F)F)C(F)(F)F"
value = 1.01

[[record]]
molecule = "Cc1ccccc1C [1,2-dimethylbenzene] + CCCCCCOCn1cc[n+](COCCCCCC)c1.O=S(=O)([N-]S(=O)(=O)C(F)(F)F)C(F)(F)F"
value = 0.891

[[record]]
molecule = "Cc1ccc(C)cc1 [1,4-dimethylbenzene] + CCCCCCOCn1cc[n+](C)c1.O=S(=O)([N-]S(=O)(=O)C(F)(F)F)C(F)(F)F"
value = 1.47

[[record]]
molecule = "CCCCCCCCC [nonane] + CCCCCCOCn1cc[n+](C)c1.O=S(=O)([N-]S(=O)(=O)C(F)(F)F)C(F)(F)F"
value = 14.6

[[record]]
molecule = "CCCCCC [hexane] + CCCCCCOCn1cc[n+](C)c1.O=S(=O)([N-]S(=O)(=O)C(F)(F)F)C(F)(F)F"
value = 7.27


Quick check: activity coefficient of O [water] + CCCCCCOCn1cc[n+](COCCCCCC)c1.O=S(=O)([N-]S(=O)(=O)C(F)(F)F)C(F)(F)F ? 2.93

Try this molecule next: C=CCCCCC [1-heptene] + CCCCCCOCn1cc[n+](C)c1.O=S(=O)([N-]S(=O)(=O)C(F)(F)F)C(F)(F)F 5.61

Try this molecule next: CCCCCCCCC [nonane] + CCCCCCOCn1cc[n+](COCCCCCC)c1.O=S(=O)([N-]S(=O)(=O)C(F)(F)F)C(F)(F)F 5.22

* * *

protocol text: activity coefficient (dimensionless); of the first substance listed, at infinite dilution; xn = mol fraction of the nth substance listed
assay setup: 328.15 K; 101 kPa; Liquid; Chromatography; x1 = 0
reported metric: activity coefficient

Quick check: activity coefficient of C#CCCCC [1-hexyne] + CCCCCCOCn1cc[n+](COCCCCCC)c1.O=S(=O)([N-]S(=O)(=O)C(F)(F)F)C(F)(F)F ? 1.18

Try this compound next: C1CCCC1 [cyclopentane] + CCCCCCOCn1cc[n+](C)c1.O=S(=O)([N-]S(=O)(=O)C(F)(F)F)C(F)(F)F 3.66

Try this compound next: O [water] + CCCCCCOCn1cc[n+](C)c1.O=S(=O)([N-]S(=O)(=O)C(F)(F)F)C(F)(F)F 2.9

Try this compound next: CC(C)=O [acetone] + CCCCCCOCn1cc[n+](COCCCCCC)c1.O=S(=O)([N-]S(=O)(=O)C(F)(F)F)C(F)(F)F 0.277

* * *

Catalogue of activity coefficient readings, one per entry.
protocol text: activity coefficient (dimensionless); of the first substance listed, at infinite dilution; xn = mol fraction of the nth substance listed
assay setup: 308.15 K; 101 kPa; Liquid; Chromatography; x1 = 0

# annotated cases, reported activity coefficient shown
[[record]]
molecule = "C1CCCC1 [cyclopentane] + CCCCCCOCn1cc[n+](C)c1.O=S(=O)([N-]S(=O)(=O)C(F)(F)F)C(F)(F)F"
reported_metric = "activity coefficient"
value = 3.99

[[record]]
molecule = "CCCCCCCCC [nonane] + CCCCCCOCn1cc[n+](C)c1.O=S(=O)([N-]S(=O)(=O)C(F)(F)F)C(F)(F)F"
reported_metric = "activity coefficient"
value = 16.6

[[record]]
molecule = "C#CCCCC [1-hexyne] + CCCCCCOCn1cc[n+](COCCCCCC)c1.O=S(=O)([N-]S(=O)(=O)C(F)(F)F)C(F)(F)F"
reported_metric = "activity coefficient"
value = 1.17

[[record]]
molecule = "CCCCC [pentane] + CCCCCCOCn1cc[n+](C)c1.O=S(=O)([N-]S(=O)(=O)C(F)(F)F)C(F)(F)F"
reported_metric = "activity coefficient"
value = 6.93

[[record]]
molecule = "C=CCCCC [hex-1-ene] + CCCCCCOCn1cc[n+](COCCCCCC)c1.O=S(=O)([N-]S(=O)(=O)C(F)(F)F)C(F)(F)F"
reported_metric = "activity coefficient"
value = 2.2


Quick check: activity coefficient of C#CCCCCCC [1-octyne] + CCCCCCOCn1cc[n+](C)c1.O=S(=O)([N-]S(=O)(=O)C(F)(F)F)C(F)(F)F ? 3.14

Try this molecule next: CO [methanol] + CCCCCCOCn1cc[n+](C)c1.O=S(=O)([N-]S(=O)(=O)C(F)(F)F)C(F)(F)F 1.24

* * *

protocol text: activity coefficient (dimensionless); of the first substance listed, at infinite dilution; xn = mol fraction of the nth substance listed
assay setup: 318.15 K; 101 kPa; Liquid; Chromatography; x1 = 0
reported metric: activity coefficient
Lab note: jot the number down without any unit.

[[record]]
compound = "C#CCCC [1-pentyne] + CCCCCCOCn1cc[n+](C)c1.O=S(=O)([N-]S(=O)(=O)C(F)(F)F)C(F)(F)F"
value = 1.57

[[record]]
compound = "C1CCCCC1 [cyclohexane] + CCCCCCOCn1cc[n+](COCCCCCC)c1.O=S(=O)([N-]S(=O)(=O)C(F)(F)F)C(F)(F)F"
value = 2.15

[[record]]
compound = "C=CCCCC [hex-1-ene] + CCCCCCOCn1cc[n+](C)c1.O=S(=O)([N-]S(=O)(=O)C(F)(F)F)C(F)(F)F"
value = 4.59

[[record]]
compound = "CCCCCC [hexane] + CCCCCCOCn1cc[n+](C)c1.O=S(=O)([N-]S(=O)(=O)C(F)(F)F)C(F)(F)F"
value = 7.59


Okay, next one:
Quick check: activity coefficient of C1CCCCCCC1 [cyclooctane] + CCCCCCOCn1cc[n+](C)c1.O=S(=O)([N-]S(=O)(=O)C(F)(F)F)C(F)(F)F ? 7.11

* * *

protocol text: activity coefficient (dimensionless); of the first substance listed, at infinite dilution; xn = mol fraction of the nth substance listed
assay setup: 318.15 K; 101 kPa; Liquid; Chromatography; x1 = 0
reported metric: activity coefficient
Lab note: jot the number down without any unit.

# annotated cases, reported activity coefficient shown
[[record]]
compound = "C1CCCCCC1 [cycloheptane] + CCCCCCOCn1cc[n+](COCCCCCC)c1.O=S(=O)([N-]S(=O)(=O)C(F)(F)F)C(F)(F)F"
value = 2.5

[[record]]
compound = "c1ccccc1 [benzene] + CCCCCCOCn1cc[n+](COCCCCCC)c1.O=S(=O)([N-]S(=O)(=O)C(F)(F)F)C(F)(F)F"
value = 0.607

[[record]]
compound = "COC(C)(C)C [2-methoxy-2-methylpropane] + CCCCCCOCn1cc[n+](COCCCCCC)c1.O=S(=O)([N-]S(=O)(=O)C(F)(F)F)C(F)(F)F"
value = 0.801


Quick check: activity coefficient of CCCCCCCC [octane] + CCCCCCOCn1cc[n+](COCCCCCC)c1.O=S(=O)([N-]S(=O)(=O)C(F)(F)F)C(F)(F)F ? 4.45

Try this compound next: CC(C)=O [acetone] + CCCCCCOCn1cc[n+](C)c1.O=S(=O)([N-]S(=O)(=O)C(F)(F)F)C(F)(F)F 0.315

Try this compound next: C#CCCC [1-pentyne] + CCCCCCOCn1cc[n+](COCCCCCC)c1.O=S(=O)([N-]S(=O)(=O)C(F)(F)F)C(F)(F)F 1

Try this compound next: CCCCCCCCC [nonane] + CCCCCCOCn1cc[n+](C)c1.O=S(=O)([N-]S(=O)(=O)C(F)(F)F)C(F)(F)F 15.5

* * *

Catalogue of activity coefficient readings, one per entry.
protocol text: activity coefficient (dimensionless); of the first substance listed, at infinite dilution; xn = mol fraction of the nth substance listed
assay setup: 328.15 K; 101 kPa; Liquid; Chromatography; x1 = 0
Lab note: jot the number down without any unit.

# annotated cases, reported activity coefficient shown
[[record]]
compound = "c1ccccc1 [benzene] + CCCCCCOCn1cc[n+](COCCCCCC)c1.O=S(=O)([N-]S(=O)(=O)C(F)(F)F)C(F)(F)F"
value = 0.607

[[record]]
compound = "C=CCCCC [hex-1-ene] + CCCCCCOCn1cc[n+](C)c1.O=S(=O)([N-]S(=O)(=O)C(F)(F)F)C(F)(F)F"
value = 4.46

[[record]]
compound = "C#CCCCCC [1-heptyne] + CCCCCCOCn1cc[n+](COCCCCCC)c1.O=S(=O)([N-]S(=O)(=O)C(F)(F)F)C(F)(F)F"
value = 1.39

[[record]]
compound = "CCc1ccccc1 [ethylbenzene] + CCCCCCOCn1cc[n+](C)c1.O=S(=O)([N-]S(=O)(=O)C(F)(F)F)C(F)(F)F"
value = 1.49

[[record]]
compound = "Cc1cccc(C)c1 [1,3-dimethylbenzene] + CCCCCCOCn1cc[n+](C)c1.O=S(=O)([N-]S(=O)(=O)C(F)(F)F)C(F)(F)F"
value = 1.46


Quick check: activity coefficient of CC(C)=O [acetone] + CCCCCCOCn1cc[n+](C)c1.O=S(=O)([N-]S(=O)(=O)C(F)(F)F)C(F)(F)F ? 0.322

Try this compound next: Cc1ccccc1 [toluene] + CCCCCCOCn1cc[n+](COCCCCCC)c1.O=S(=O)([N-]S(=O)(=O)C(F)(F)F)C(F)(F)F 0.749
